test-method-notes: In vivo kinetics experiment (radioactivity distribution)
Design: species or system Wistar male rat
assay-context: rat, caudal vein, 60 min after administration
endpoint-name: Radioactivity distribution Stomach (% ID/g)
Give the number; % ID/g is assumed, so skip it.

Some molecules with recorded Radioactivity distribution Stomach:
>>> observed_value("Fc1cc2nc(-c3cncc(Cn4ccnc4)c3)n(CCC[18F])c2cc1Cl [[^18F] 500]")
1.66
>>> observed_value("Fc1cc2nc(-c3cncc(Cn4ccnc4)c3)n(CC[18F])c2cc1Br [[^18F] 200]")
0.65
>>> observed_value("FCCn1c(-c2cncc(Cn3ccnc3)c2)nc2cc(F)c([123I])cc21 [[^123I] 400]")
4.35
>>> observed_value("[123I]c1ccc2nc(-c3cncc(Cn4ccnn4)c3)n(C3CC3)c2c1 [[^123I] 603]")
0.89
>>> observed_value("Fc1cc2nc(-c3cncc(Cn4ccnc4)c3)n(CC[18F])c2cc1Cl [[^18F] 100]")
1.02

Moving on to another molecule below.
In: Please give measured Radioactivity distribution Stomach of the following entry: [123I]c1ccc2nc(-c3cncc(Cn4ccnc4)c3)n(C3CC3)c2c1 [[^123I] 602]
Out: 4.35
